quantity: IC50

Req: # query: IC50 | item CC(NC(=O)c1ccc(C2CC2)c(-c2ccc3nc(Nc4cnn(C5CC5)c4)ncc3c2)c1)c1cccc(C(F)(F)F)c1 (stereo not drawn) | system: Src (Homo sapiens (Human), UniProt P12931)
Resp: > 1 µM

Req: # query: IC50 | item CCC(NC(=O)c1ccc(C2CC2)c(-c2ccc3nc(Nc4cnn(C5CC5)c4)ncc3c2)c1)c1cccc(C(F)(F)F)c1 (stereo not drawn) | system: Src (Homo sapiens (Human), UniProt P12931)
Resp: > 1 µM

Req: # query: IC50 | item O=C(Nc1cccc(C(F)(F)F)c1)c1ccc(C2CC2)c(-c2ccc3nc(Nc4cnn(C5CC5)c4)ncc3c2)c1 | system: Src (Homo sapiens (Human), UniProt P12931)
Resp: > 0.1 µM

----------
Flt-3 (Homo sapiens (Human)) IC50 data
Sequence (P36888 27-993, species assumed): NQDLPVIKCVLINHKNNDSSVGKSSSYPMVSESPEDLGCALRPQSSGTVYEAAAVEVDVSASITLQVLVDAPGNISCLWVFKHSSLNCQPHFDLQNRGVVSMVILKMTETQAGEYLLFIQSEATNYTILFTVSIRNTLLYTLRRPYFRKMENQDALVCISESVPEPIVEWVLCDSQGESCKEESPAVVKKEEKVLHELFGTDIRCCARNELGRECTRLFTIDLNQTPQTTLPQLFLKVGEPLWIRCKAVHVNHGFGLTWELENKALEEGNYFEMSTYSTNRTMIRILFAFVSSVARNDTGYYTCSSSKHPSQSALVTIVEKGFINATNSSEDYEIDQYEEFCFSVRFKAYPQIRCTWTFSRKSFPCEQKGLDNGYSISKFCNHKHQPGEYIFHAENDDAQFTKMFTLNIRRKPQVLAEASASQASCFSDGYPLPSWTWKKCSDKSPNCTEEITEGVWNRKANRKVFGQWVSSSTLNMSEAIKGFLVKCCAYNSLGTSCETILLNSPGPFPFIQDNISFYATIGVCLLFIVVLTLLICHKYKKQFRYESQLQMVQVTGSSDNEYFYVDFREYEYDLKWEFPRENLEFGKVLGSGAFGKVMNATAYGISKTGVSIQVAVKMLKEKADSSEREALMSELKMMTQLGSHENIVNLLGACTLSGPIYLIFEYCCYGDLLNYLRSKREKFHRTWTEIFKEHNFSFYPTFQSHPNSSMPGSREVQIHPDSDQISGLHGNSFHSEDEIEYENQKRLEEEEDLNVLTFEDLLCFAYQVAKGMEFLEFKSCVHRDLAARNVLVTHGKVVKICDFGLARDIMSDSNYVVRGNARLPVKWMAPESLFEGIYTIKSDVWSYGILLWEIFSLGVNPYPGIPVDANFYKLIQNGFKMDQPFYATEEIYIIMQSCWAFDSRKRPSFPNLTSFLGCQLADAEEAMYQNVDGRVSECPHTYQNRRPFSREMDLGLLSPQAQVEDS

Req: # input compound: O=C(Nc1cccc(C(F)(F)F)c1)c1ccc(C2CC2)c(-c2ccc3nc(Nc4cnn(C5CC5)c4)ncc3c2)c1 [Compound S15] ; wanted: its IC50
Resp: > 1000 nM

Req: # input compound: CCC(NC(=O)c1ccc(C2CC2)c(-c2ccc3nc(Nc4cnn(C5CC5)c4)ncc3c2)c1)c1cccc(C(F)(F)F)c1 (centres unmarked) [Compound S18] ; wanted: its IC50
Resp: > 1000 nM

----------
quantity: IC50

Req: # query: IC50 | item CCC(NC(=O)c1ccc(C2CC2)c(-c2ccc3nc(Nc4cnn(C5CC5)c4)ncc3c2)c1)c1cccc(C(F)(F)F)c1 (stereo not shown) | system: FGFR-2 (Homo sapiens (Human))
Resp: > 1000 nM

----------
Assignment: determine reported IC50 for the given molecules.

Req: # query: IC50 | item CCC(NC(=O)c1ccc(C2CC2)c(-c2ccc3nc(Nc4cnn(C5CC5)c4)ncc3c2)c1)c1cccc(C(F)(F)F)c1 (stereo not drawn) | system: UniProt P00533
Resp: > 1000 nM

Req: # query: IC50 | item O=C(Nc1cccc(C(F)(F)F)c1)c1ccc(C2CC2)c(-c2ccc3nc(Nc4cnn(C5CC5)c4)ncc3c2)c1 | system: UniProt P00533
Resp: > 1000 nM

Req: # query: IC50 | item CC(NC(=O)c1ccc(C2CC2)c(-c2ccc3nc(Nc4cnn(C5CC5)c4)ncc3c2)c1)c1cccc(C(F)(F)F)c1 (stereo not drawn) | system: UniProt P00533
Resp: > 1000 nM

----------
Assignment: determine reported IC50 for the given compounds.

Req: # query: IC50 | item O=C(Nc1cccc(C(F)(F)F)c1)c1ccc(C2CC2)c(-c2ccc3nc(Nc4cnn(C5CC5)c4)ncc3c2)c1 | system: UniProt:Q15303
Resp: > 10 nM

Req: # query: IC50 | item CCC(NC(=O)c1ccc(C2CC2)c(-c2ccc3nc(Nc4cnn(C5CC5)c4)ncc3c2)c1)c1cccc(C(F)(F)F)c1 (stereo not drawn) | system: UniProt:Q15303
Resp: > 1000 nM

Req: # query: IC50 | item CC(NC(=O)c1ccc(C2CC2)c(-c2ccc3nc(Nc4cnn(C5CC5)c4)ncc3c2)c1)c1cccc(C(F)(F)F)c1 (stereo not drawn) | system: UniProt:Q15303
Resp: > 1000 nM

----------
experimental_target: DDR2 (Homo sapiens (Human), UniProt Q16832)
Sequence (Q16832 563-849): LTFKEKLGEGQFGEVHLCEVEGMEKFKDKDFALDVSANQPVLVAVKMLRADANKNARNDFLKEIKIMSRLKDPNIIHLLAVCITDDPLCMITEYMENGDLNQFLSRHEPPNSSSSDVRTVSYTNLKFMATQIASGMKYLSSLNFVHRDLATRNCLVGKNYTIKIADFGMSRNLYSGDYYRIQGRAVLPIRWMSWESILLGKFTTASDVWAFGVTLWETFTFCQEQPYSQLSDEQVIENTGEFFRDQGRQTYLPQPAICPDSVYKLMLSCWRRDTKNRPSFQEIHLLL
test_summary: DDR2 enzyme activity test (ELISA)
Assay type: biochemical
condition_context: read-out: DDR2 IC50
Class membership depends on IC50 alone; the intervals are label 0: < 3 nM; label 1: ≥ 3 nM and < 6 nM; label 2: ≥ 6 nM

Req: In plain terms, what class is CCC(NC(=O)c1cccc(C(F)(F)F)c1)c1ccc(C)c(-c2ccc3nc(Nc4cnn(C)c4)ncc3c2)c1 (centres unmarked) ?
Resp: label 1

Req: In plain terms, what class is CC(C)c1ccc(C(=O)Nc2cccc(C(F)(F)F)c2)cc1-c1ccc2nc(Nc3cnn(C)c3)ncc2c1 ?
Resp: label 1

Req: In plain terms, what class is Cc1ccc(C(C)NC(=O)Nc2cccc(C(F)(F)F)c2)cc1-c1ccc2nc(Nc3cnn(C)c3)ncc2c1 (centres unmarked) ?
Resp: label 2

Req: In plain terms, what class is C[C@@H](NC(=O)c1ccc(C2CC2)c(-c2ccc3cnc(Nc4cnn(C5CC5)c4)nc3c2)c1)c1cccc(C(F)(F)F)c1 ?
Resp: label 2

Req: In plain terms, what class is Cc1ccc(C(=O)NC(C)c2cccc(C(F)(F)F)c2)cc1-c1ccc2nc(Nc3cnn(C)c3)ncc2c1 (centres unmarked) ?
Resp: label 0

Req: In plain terms, what class is Cc1ccc(NC(=O)Nc2cccc(C(F)(F)F)c2)cc1-c1ccc2nc(Nc3cnn(C)c3)ncc2c1 ?
Resp: label 2

Req: In plain terms, what class is Cc1ccc(C(C)C(=O)Nc2cccc(C(F)(F)F)c2)cc1-c1ccc2nc(Nc3cnn(C4CC4)c3)ncc2c1 (centres unmarked) ?
Resp: label 0

Req: In plain terms, what class is CCC(NC(=O)c1ccc(C2CC2)c(-c2ccc3nc(Nc4cnn(C5CC5)c4)ncc3c2)c1)c1cccc(C(F)(F)F)c1 (centres unmarked) ?
Resp: label 1

Req: In plain terms, what class is CC(NC(=O)c1ccc(C2CC2)c(-c2ccc3nc(Nc4cnn(C5CC5)c4)ncc3c2)c1)c1cccc(C(F)(F)F)c1 (centres unmarked) ?
Resp: label 2

Req: In plain terms, what class is Cc1ccc(C(C)NC(=O)c2cccc(C(F)(F)F)c2)cc1-c1ccc2cnc(Nc3cnn(C)c3)nc2c1 (centres unmarked) ?
Resp: label 1

Req: In plain terms, what class is Cc1ccc(NC(=O)C(C)c2cccc(C(F)(F)F)c2)cc1-c1ccc2nc(Nc3cnn(C)c3)ncc2c1 (centres unmarked) ?
Resp: label 0

Req: In plain terms, what class is Cc1ccc(C(=O)NCc2cccc(C(F)(F)F)c2)cc1-c1ccc2nc(Nc3cnn(C)c3)ncc2c1 ?
Resp: label 0

Req: In plain terms, what class is CC(C(=O)Nc1ccc(C2CC2)c(-c2ccc3nc(Nc4cnn(C5CC5)c4)ncc3c2)c1)c1cccc(C(F)(F)F)c1 (centres unmarked) ?
Resp: label 0

Req: In plain terms, what class is Cc1ccc(C(C)NC(=O)c2cccc(C(C)(C)C#N)c2)cc1-c1ccc2nc(Nc3cnn(C4CC4)c3)ncc2c1 (centres unmarked) ?
Resp: label 1

----------
experimental_target: P38 MAPK
Sequence (Q16539 2-360 limits assumed): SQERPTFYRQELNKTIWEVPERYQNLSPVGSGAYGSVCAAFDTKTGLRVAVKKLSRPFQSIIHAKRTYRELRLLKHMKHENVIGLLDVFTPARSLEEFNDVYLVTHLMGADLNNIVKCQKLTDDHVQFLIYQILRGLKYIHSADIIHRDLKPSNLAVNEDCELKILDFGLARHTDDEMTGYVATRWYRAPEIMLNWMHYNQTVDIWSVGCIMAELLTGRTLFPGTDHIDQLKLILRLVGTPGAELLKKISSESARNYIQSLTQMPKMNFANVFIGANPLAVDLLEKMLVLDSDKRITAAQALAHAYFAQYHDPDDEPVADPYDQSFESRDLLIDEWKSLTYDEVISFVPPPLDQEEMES
test_summary: Enzyme selectivity test (ELISA), P38 MAPK
pIC50: −log10 of the molar value.
quantity: pIC50

Req: # input compound: CCC(NC(=O)c1ccc(C2CC2)c(-c2ccc3nc(Nc4cnn(C5CC5)c4)ncc3c2)c1)c1cccc(C(F)(F)F)c1 (stereo not shown) ; wanted: its pIC50
Resp: < 6.00

----------
quantity: IC50

Req: # query: IC50 | item O=C(Nc1cccc(C(F)(F)F)c1)c1ccc(C2CC2)c(-c2ccc3nc(Nc4cnn(C5CC5)c4)ncc3c2)c1 [Compound S15] | system: EPH-A2 (Homo sapiens (Human), UniProt P29317)
Resp: > 10 nM

Req: # query: IC50 | item CCC(NC(=O)c1ccc(C2CC2)c(-c2ccc3nc(Nc4cnn(C5CC5)c4)ncc3c2)c1)c1cccc(C(F)(F)F)c1 (centres unmarked) [Compound S18] | system: EPH-A2 (Homo sapiens (Human), UniProt P29317)
Resp: > 1000 nM

----------
Abl (Homo sapiens (Human), UniProt P00519) IC50 data
Sequence (P00519 whole entry, species assumed): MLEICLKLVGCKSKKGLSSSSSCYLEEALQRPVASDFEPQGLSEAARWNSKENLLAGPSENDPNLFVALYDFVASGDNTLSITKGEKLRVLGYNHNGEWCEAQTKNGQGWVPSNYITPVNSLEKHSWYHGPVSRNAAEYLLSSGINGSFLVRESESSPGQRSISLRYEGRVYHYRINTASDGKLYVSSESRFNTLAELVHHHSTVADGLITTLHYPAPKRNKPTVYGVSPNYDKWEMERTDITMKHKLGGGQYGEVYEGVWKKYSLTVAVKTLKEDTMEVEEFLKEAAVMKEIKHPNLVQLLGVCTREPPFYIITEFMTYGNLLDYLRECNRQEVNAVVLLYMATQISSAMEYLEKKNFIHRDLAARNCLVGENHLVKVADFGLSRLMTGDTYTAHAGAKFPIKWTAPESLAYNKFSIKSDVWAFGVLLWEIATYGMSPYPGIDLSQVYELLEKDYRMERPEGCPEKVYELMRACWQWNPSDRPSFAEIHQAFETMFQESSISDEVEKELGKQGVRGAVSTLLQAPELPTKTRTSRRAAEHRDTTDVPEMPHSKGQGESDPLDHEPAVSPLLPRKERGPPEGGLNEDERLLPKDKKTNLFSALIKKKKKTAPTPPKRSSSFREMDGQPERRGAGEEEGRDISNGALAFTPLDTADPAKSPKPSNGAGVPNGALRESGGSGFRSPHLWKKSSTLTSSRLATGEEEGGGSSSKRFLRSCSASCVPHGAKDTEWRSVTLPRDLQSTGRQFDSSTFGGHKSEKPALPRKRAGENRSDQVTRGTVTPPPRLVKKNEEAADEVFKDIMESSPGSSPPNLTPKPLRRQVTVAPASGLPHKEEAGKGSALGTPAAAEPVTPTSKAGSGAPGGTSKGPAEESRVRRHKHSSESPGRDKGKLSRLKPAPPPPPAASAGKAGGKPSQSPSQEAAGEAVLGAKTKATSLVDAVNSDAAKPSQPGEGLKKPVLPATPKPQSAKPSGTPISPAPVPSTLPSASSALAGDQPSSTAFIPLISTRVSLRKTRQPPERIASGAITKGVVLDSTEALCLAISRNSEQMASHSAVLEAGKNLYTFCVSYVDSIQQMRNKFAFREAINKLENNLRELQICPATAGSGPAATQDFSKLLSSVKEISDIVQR

Req: # input compound: CCC(NC(=O)c1ccc(C2CC2)c(-c2ccc3nc(Nc4cnn(C5CC5)c4)ncc3c2)c1)c1cccc(C(F)(F)F)c1 (centres unmarked) ; wanted: its IC50
Resp: > 1000 nM

Req: # input compound: O=C(Nc1cccc(C(F)(F)F)c1)c1ccc(C2CC2)c(-c2ccc3nc(Nc4cnn(C5CC5)c4)ncc3c2)c1 ; wanted: its IC50
Resp: < 10 nM

----------
experimental_target: DDR2 (Homo sapiens (Human))
test_summary: DDR2 enzyme activity test (ELISA)
Format: biochemical
condition_context: read-out: DDR2 IC50
quantity: IC50 (nM)
The answer is to be given in nM; state only the numeric part.

Req: # input molecule: Cn1cc(Nc2ncc3cc(-c4cc(C(=O)Nc5cccc(C(F)(F)F)c5)ccc4C4CC4)ccc3n2)cn1 ; wanted: its IC50
Resp: 4.3

Req: # input molecule: O=C(Nc1cccc(C(F)(F)F)c1)c1ccc(C2CC2)c(-c2ccc3nc(Nc4cnn(C5CC5)c4)ncc3c2)c1 ; wanted: its IC50
Resp: 6.1

Req: # input molecule: Cc1ccc(NC(=O)Nc2cc(C(C)(C)C)nn2-c2ccccc2)cc1-c1ccc2nc(Nc3cnn(C)c3)ncc2c1 ; wanted: its IC50
Resp: 9.7
